pIC50: −log10 of the molar value.
The next entries give measured pIC50 for human full-length HSP90 (Homo sapiens, UniProt P08238).

# STRUCTURE_STRING, pIC50
data = [
    ("Cc1c[nH]c2cc(O)c(-c3n[nH]cc3N3CCNCC3)cc12", "< 5.00"),
    ("O=S(=O)(c1ccsc1)N1CCN(c2c[nH]nc2-c2cc(Cl)c(O)cc2O)CC1", "> 5.00"),
    ("CC(=O)c1ccc(CN2CCN(c3c[nH]nc3-c3cc(Cl)c(O)cc3O)CC2)cc1", "> 5.00"),
    ("O=C(O)CN1CCN(c2c[nH]nc2-c2cc(Cl)c(O)cc2O)CC1", "> 5.00"),
    ("Cc1[nH]nc(-c2cc(Cl)c(O)cc2O)c1N1CCNCC1", "> 5.00"),
    ("CNC(=O)c1cccc(CN2CCN(c3c[nH]nc3-c3cc(Cl)c(O)cc3O)CC2)c1", "> 5.00"),
    ("CC(=O)Nc1ccc(-c2n[nH]cc2N2CCNCC2)c(O)c1", "< 5.00"),
]

====

pIC50: −log10 of the molar value.
Endpoint: pIC50. System: yeast HSP90 (Saccharomyces cerevisiae, UniProt P02829). Items follow.
Sequence (P02829 whole entry): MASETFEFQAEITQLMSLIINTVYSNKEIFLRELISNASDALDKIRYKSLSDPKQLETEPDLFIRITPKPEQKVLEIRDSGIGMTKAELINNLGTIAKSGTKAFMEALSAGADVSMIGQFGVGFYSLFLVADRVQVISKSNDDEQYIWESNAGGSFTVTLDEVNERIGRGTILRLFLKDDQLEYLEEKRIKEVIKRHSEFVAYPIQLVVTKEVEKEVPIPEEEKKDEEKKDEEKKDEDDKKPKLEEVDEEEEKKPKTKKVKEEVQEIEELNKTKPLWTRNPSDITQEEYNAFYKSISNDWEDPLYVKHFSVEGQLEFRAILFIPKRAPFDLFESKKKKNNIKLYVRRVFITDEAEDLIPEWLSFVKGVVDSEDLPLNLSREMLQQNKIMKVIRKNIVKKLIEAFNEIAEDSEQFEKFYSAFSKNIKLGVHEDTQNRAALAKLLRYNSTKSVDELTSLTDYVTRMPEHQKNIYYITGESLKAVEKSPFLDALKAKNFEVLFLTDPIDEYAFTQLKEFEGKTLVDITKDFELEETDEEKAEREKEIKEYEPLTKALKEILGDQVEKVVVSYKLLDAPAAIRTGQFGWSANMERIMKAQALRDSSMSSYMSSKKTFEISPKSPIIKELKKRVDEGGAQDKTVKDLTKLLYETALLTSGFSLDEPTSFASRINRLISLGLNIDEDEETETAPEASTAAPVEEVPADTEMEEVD

# STRUCTURE_STRING, MEASURED_ON, pIC50
records = [
    ("CC(C)(C)OC(=O)N1CCN(c2c[nH]nc2-c2cc(Cl)c(O)cc2O)CC1", "yeast HSP90 (Saccharomyces cerevisiae, UniProt P02829)", "< 4.30"),
    ("CCNC(=O)c1[nH]nc(-c2cc(Cl)c(O)cc2O)c1N1CCNCC1", "yeast HSP90 (Saccharomyces cerevisiae, UniProt P02829)", "> 4.30"),
    ("Oc1cc(O)c(-c2n[nH]cc2N2CCC(NCc3ccccc3)CC2)cc1Br", "yeast HSP90 (Saccharomyces cerevisiae, UniProt P02829)", "> 4.30"),
    ("Oc1cc(O)c(-c2n[nH]cc2N2CCNCC2)cc1CCc1ccc2c(c1)OCO2", "yeast HSP90 (Saccharomyces cerevisiae, UniProt P02829)", "> 4.30"),
]

====

target: yeast HSP90 (Saccharomyces cerevisiae)
# maps each entry to its IC50

# STRUCTURE_STRING, IC50
data = [
    ("Oc1cc(O)c(-c2n[nH]cc2N2CCN(Cc3ccco3)CC2)cc1Cl", "> 50 µM"),
    ("COc1ccc(OC)c(CCc2cc(-c3n[nH]cc3N3CCNCC3)c(O)cc2O)c1", "< 50 µM"),
    ("O=C(O)c1ccc(CN2CCN(c3c[nH]nc3-c3cc(Cl)c(O)cc3O)CC2)cc1", "< 50 µM"),
    ("Cc1cc(NC(=O)c2ccc(CN3CCN(c4c[nH]nc4-c4cc(Cl)c(O)cc4O)CC3)cc2)no1", "< 50 µM"),
    ("COC(=O)c1ccc(CN2CCN(c3c[nH]nc3-c3cc(Cl)c(O)cc3O)CC2)o1", "< 50 µM"),
    ("Cc1cccc(CCc2cc(-c3n[nH]cc3N3CCNCC3)c(O)cc2O)c1", "< 50 µM"),
    ("Oc1cc(O)c(-c2n[nH]cc2N2CCNCC2)cc1Cl", "< 50 µM"),
    ("O=C(O)c1cccc(CN2CCN(c3c[nH]nc3-c3cc(Cl)c(O)cc3O)CC2)c1", "< 50 µM"),
    ("Cn1ncc(N2CCNCC2)c1-c1cc(Br)c(O)cc1O", "> 50 µM"),
]

====

assay: Sulforhodamine B (SRB) growth inhibition assay; type: cell-based; conditions: SRB growth arrest assay
pIC50: −log10 of the molar value.

# MOLECULE, pIC50
data = [
    ("Oc1cc(O)c(-c2n[nH]cc2N2CCNCC2)cc1Cl [Example 2]", "> 4.30"),
]

====

pIC50: −log10 of the molar value.
Assay read-out pIC50; system under study: yeast HSP90 (Saccharomyces cerevisiae).
VALUE_TYPE: pIC50

# STRUCTURE_STRING, VALUE_TYPE, EXPERIMENTAL_VALUE
rows = [
    ("COC(=O)c1ccc(CN2CCN(c3c[nH]nc3-c3cc(Cl)c(O)cc3O)CC2)cc1", "pIC50", "> 4.30"),
    ("NC(=O)c1ccc(CN2CCN(c3c[nH]nc3-c3cc(Cl)c(O)cc3O)CC2)cc1", "pIC50", "> 4.30"),
    ("O=[N+]([O-])c1ccc(CNC2CCN(c3c[nH]nc3-c3cc(Br)c(O)cc3O)CC2)cc1", "pIC50", "> 4.30"),
]
